target_under_test: Substance-P receptor (Cavia porcellus, UniProt P30547)
Sequence (P30547 whole entry): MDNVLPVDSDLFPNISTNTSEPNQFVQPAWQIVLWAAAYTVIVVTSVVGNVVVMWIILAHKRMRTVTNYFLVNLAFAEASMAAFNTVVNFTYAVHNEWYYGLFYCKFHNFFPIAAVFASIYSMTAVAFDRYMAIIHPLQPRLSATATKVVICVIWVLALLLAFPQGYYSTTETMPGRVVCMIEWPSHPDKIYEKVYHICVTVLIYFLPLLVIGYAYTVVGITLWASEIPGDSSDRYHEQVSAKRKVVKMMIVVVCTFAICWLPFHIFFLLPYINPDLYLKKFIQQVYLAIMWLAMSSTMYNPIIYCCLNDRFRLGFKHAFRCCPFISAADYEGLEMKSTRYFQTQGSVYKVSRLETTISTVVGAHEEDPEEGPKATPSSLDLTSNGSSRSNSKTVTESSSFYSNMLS
test_summary: The compound was tested for binding affinity against Tachykinin receptor 1 from guinea pig trachea
readout_kind: Ki

## Input Give a short answer stating reported Ki for "O=C1OC2(CCN(CCc3c[nH]c4ccc(F)cc34)CC2)CN1Cc1ccccc1" .
## Output > 10 µM

====

target_under_test: UniProt:P21452
Sequence (P21452 whole entry): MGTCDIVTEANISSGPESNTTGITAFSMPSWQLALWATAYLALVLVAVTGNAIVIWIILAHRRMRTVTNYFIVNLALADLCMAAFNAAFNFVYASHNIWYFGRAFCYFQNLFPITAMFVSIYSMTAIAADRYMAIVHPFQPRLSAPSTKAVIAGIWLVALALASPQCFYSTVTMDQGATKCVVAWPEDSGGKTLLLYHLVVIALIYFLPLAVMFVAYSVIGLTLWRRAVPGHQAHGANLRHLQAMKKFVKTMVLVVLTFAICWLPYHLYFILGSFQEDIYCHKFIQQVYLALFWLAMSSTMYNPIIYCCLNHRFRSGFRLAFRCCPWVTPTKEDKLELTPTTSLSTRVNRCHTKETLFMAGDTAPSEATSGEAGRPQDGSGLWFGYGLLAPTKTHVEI
readout_kind: pKi
API: returns pKi as number; meaning -log10 of concentration in mol/L.

## Input Kindly indicate its recorded pKi. Item: "O=C1OC2(CCN(CCc3c[nH]c4ccc(F)cc34)CC2)CN1Cc1ccccc1"
## Output 8.10

Source listed as ChEMBL document CHEMBL1128556.
